- Tested on: LNCaP tumor bearing mice
- methodDescription: SPECT/CT scanning, exposure of 177Lu labeled compounds in tumor and tissues
- Assay type: in vivo
- appliedConditions: labeled with 177Lu; about 7.4 MBq (200 μCi) tail vein; scans 1-72 h
assayReadout: Exposure in Muscle (h*ID %/g)
# value in h*ID %/g; strip the unit string

# input What Exposure in Muscle value was documented for this compound, COc1ccc(CCCC(=O)NC(CCCNC(=N)N)C(=O)N[C@@H](CCCCNC(=O)CN2CCN(CC(=O)O)CCN(CC(=O)O)CCN(CC(=O)O)CC2)C(=O)NCC2CCC(C(=O)N[C@@H](Cc3ccc4ccccc4c3)C(=O)NCCCC[C@H](NC(=O)N[C@@H](CCC(=O)O)C(=O)O)C(=O)O)CC2)cc1 (stereo partly shown) ?
# output 17.65

# input Entry to check: COc1ccc(C(=O)NCCN2CCN(C(=O)CCC(=O)N[C@@H](CCCCNC(=O)CN3CCN(CC(=O)O)CCN(CC(=O)O)CCN(CC(=O)O)CC3)C(=O)NCC3CCC(C(=O)N[C@@H](Cc4ccc5ccccc5c4)C(=O)NCCCC[C@H](NC(=O)N[C@@H](CCC(=O)O)C(=O)O)C(=O)O)CC3)CC2)cc1 (stereo partly shown)
# output 26.77

# input Entry to check: O=C(O)CCCCCCCCCCCCCCC(=O)N[C@@H](CCCCNC(=O)CN1CCN(CC(=O)O)CCN(CC(=O)O)CCN(CC(=O)O)CC1)C(=O)NCC1CCC(C(=O)N[C@@H](Cc2ccc3ccccc3c2)C(=O)NCCCC[C@H](NC(=O)N[C@@H](CCC(=O)O)C(=O)O)C(=O)O)CC1 (stereo partly shown)
# output 253.3

# input Entry to check: COc1ccc(CCCC(=O)NC(CCC(N)=O)C(=O)N[C@@H](CCCCNC(=O)CN2CCN(CC(=O)O)CCN(CC(=O)O)CCN(CC(=O)O)CC2)C(=O)NCC2CCC(C(=O)N[C@@H](Cc3ccc4ccccc4c3)C(=O)NCCCC[C@H](NC(=O)N[C@@H](CCC(=O)O)C(=O)O)C(=O)O)CC2)cc1 (stereo partly shown)
# output 25.53

###

- Test system: LNCaP tumor bearing mice
- methodDescription: SPECT/CT scanning, exposure of 177Lu labeled compounds in tumor and tissues
- Assay type: in vivo
- appliedConditions: labeled with 177Lu; about 7.4 MBq (200 μCi) tail vein; scans 1-72 h
Task for the reader: assign each of the following compounds its reported Exposure in Heart.
# value in h*ID %/g; strip the unit string

# input What Exposure in Heart value was documented for this compound, O=C(O)CC[C@H](NC(=O)N[C@@H](CCCCNC(=O)[C@H](Cc1ccc2ccccc2c1)NC(=O)[C@H]1CC[C@H](CNC(=O)CN2CCN(CC(=O)O)CCN(CC(=O)O)CCN(CC(=O)O)CC2)CC1)C(=O)O)C(=O)O [PSMA-617, reference compound] ?
# output 23.31

# input Entry to check: O=C(O)CCCCCCCCCCCCC(=O)N[C@@H](CCCCNC(=O)CN1CCN(CC(=O)O)CCN(CC(=O)O)CCN(CC(=O)O)CC1)C(=O)NCC1CCC(C(=O)N[C@@H](Cc2ccc3ccccc3c2)C(=O)NCCCC[C@H](NC(=O)N[C@@H](CCC(=O)O)C(=O)O)C(=O)O)CC1 (stereo partly shown) [PSMA-G]
# output 123.9

# input Entry to check: COc1ccc(CCCC(=O)NC(CCC(N)=O)C(=O)N[C@@H](CCCCNC(=O)CN2CCN(CC(=O)O)CCN(CC(=O)O)CCN(CC(=O)O)CC2)C(=O)NCC2CCC(C(=O)N[C@@H](Cc3ccc4ccccc4c3)C(=O)NCCCC[C@H](NC(=O)N[C@@H](CCC(=O)O)C(=O)O)C(=O)O)CC2)cc1 (stereo partly shown) [PSMA-E]
# output 19.52

# input Entry to check: COc1ccc(CCCC(=O)NC(CCCCN)C(=O)N[C@@H](CCCCNC(=O)CN2CCN(CC(=O)O)CCN(CC(=O)O)CCN(CC(=O)O)CC2)C(=O)NCC2CCC(C(=O)N[C@@H](Cc3ccc4ccccc4c3)C(=O)NCCCC[C@H](NC(=O)N[C@@H](CCC(=O)O)C(=O)O)C(=O)O)CC2)cc1 (stereo partly shown) [PSMA-C]
# output 38.58

###

- System: LNCaP tumor bearing mice
- methodDescription: SPECT/CT scanning, exposure of 177Lu labeled compounds in tumor and tissues
- Assay type: in vivo
- appliedConditions: labeled with 177Lu; about 7.4 MBq (200 μCi) tail vein; scans 1-72 h
assayReadout: Exposure in Muscle (h*ID %/g)
# value in h*ID %/g; strip the unit string

# input What Exposure in Muscle value was documented for this compound, O=C(O)CCCCCCCCCCCCC(=O)N[C@@H](CCCCNC(=O)CN1CCN(CC(=O)O)CCN(CC(=O)O)CCN(CC(=O)O)CC1)C(=O)NCC1CCC(C(=O)N[C@@H](Cc2ccc3ccccc3c2)C(=O)NCCCC[C@H](NC(=O)N[C@@H](CCC(=O)O)C(=O)O)C(=O)O)CC1 (stereo partly drawn) [PSMA-G] ?
# output 71.89

# input Entry to check: COc1ccc(C(=O)N[C@@H](CCCCNC(=O)CN2CCN(CC(=O)O)CCN(CC(=O)O)CCN(CC(=O)O)CC2)C(=O)NCC2CCC(C(=O)N[C@@H](Cc3ccc4ccccc4c3)C(=O)NCCCC[C@H](NC(=O)N[C@@H](CCC(=O)O)C(=O)O)C(=O)O)CC2)cc1 (stereo partly drawn) [PSMA-I]
# output 62.66

# input Entry to check: O=C(O)CC[C@H](NC(=O)N[C@@H](CCCCNC(=O)[C@H](Cc1ccc2ccccc2c1)NC(=O)[C@H]1CC[C@H](CNC(=O)CN2CCN(CC(=O)O)CCN(CC(=O)O)CCN(CC(=O)O)CC2)CC1)C(=O)O)C(=O)O [PSMA-617, reference compound]
# output 36.36

###

- Test system: LNCaP tumor bearing mice
- methodDescription: SPECT/CT scanning, exposure of 177Lu labeled compounds in tumor and tissues
- Assay type: in vivo
- appliedConditions: labeled with 177Lu; about 7.4 MBq (200 μCi) tail vein; scans 1-72 h
Just a reminder that ties go to Criterion not met: only Exposure in Liver strictly below 60 h*ID %/g counts as Criterion met.

# input Please indicate whether the reported Exposure in Liver of COc1ccc(C(=O)N[C@@H](CCCCNC(=O)CN2CCN(CC(=O)O)CCN(CC(=O)O)CCN(CC(=O)O)CC2)C(=O)NCC2CCC(C(=O)N[C@@H](Cc3ccc4ccccc4c3)C(=O)NCCCC[C@H](NC(=O)N[C@@H](CCC(=O)O)C(=O)O)C(=O)O)CC2)cc1 (some centres unmarked) is strictly below 60 h*ID %/g.
# output Criterion met

# input Entry to check: O=C(O)CCCCCCCCCCCCC(=O)N[C@@H](CCCCNC(=O)CN1CCN(CC(=O)O)CCN(CC(=O)O)CCN(CC(=O)O)CC1)C(=O)NCC1CCC(C(=O)N[C@@H](Cc2ccc3ccccc3c2)C(=O)NCCCC[C@H](NC(=O)N[C@@H](CCC(=O)O)C(=O)O)C(=O)O)CC1 (some centres unmarked)
# output Criterion not met

# input Entry to check: O=C(O)CCCCCCCCCCC(=O)N[C@@H](CCCCNC(=O)CN1CCN(CC(=O)O)CCN(CC(=O)O)CCN(CC(=O)O)CC1)C(=O)NCC1CCC(C(=O)N[C@@H](Cc2ccc3ccccc3c2)C(=O)NCCCC[C@H](NC(=O)N[C@@H](CCC(=O)O)C(=O)O)C(=O)O)CC1 (some centres unmarked)
# output Criterion not met

# input Entry to check: "COc1ccc(C(=O)NCCN2CCN(C(=O)CCC(=O)N[C@@H](CCCCNC(=O)CN3CCN(CC(=O)O)CCN(CC(=O)O)CCN(CC(=O)O)CC3)C(=O)N3CCc4cc(C(=O)N[C@@H](Cc5ccc6ccccc6c5)C(=O)NCCCC[C@H](NC(=O)N[C@@H](CCC(=O)O)C(=O)O)C(=O)O)ccc4C3)CC2)cc1"
# output Criterion not met

# input Entry to check: COc1ccc(CCCC(=O)NC(Cc2c[nH]cn2)C(=O)N[C@@H](CCCCNC(=O)CN2CCN(CC(=O)O)CCN(CC(=O)O)CCN(CC(=O)O)CC2)C(=O)NCC2CCC(C(=O)N[C@@H](Cc3ccc4ccccc4c3)C(=O)NCCCC[C@H](NC(=O)N[C@@H](CCC(=O)O)C(=O)O)C(=O)O)CC2)cc1 (some centres unmarked)
# output Criterion met

# input Entry to check: O=C(O)CC[C@H](NC(=O)N[C@@H](CCCCNC(=O)[C@H](Cc1ccc2ccccc2c1)NC(=O)[C@H]1CC[C@H](CNC(=O)CN2CCN(CC(=O)O)CCN(CC(=O)O)CCN(CC(=O)O)CC2)CC1)C(=O)O)C(=O)O [PSMA-617, reference compound]
# output Criterion met

# input Entry to check: O=C(O)CCCCCCCCCCCCCCC(=O)N[C@@H](CCCCNC(=O)CN1CCN(CC(=O)O)CCN(CC(=O)O)CCN(CC(=O)O)CC1)C(=O)NCC1CCC(C(=O)N[C@@H](Cc2ccc3ccccc3c2)C(=O)NCCCC[C@H](NC(=O)N[C@@H](CCC(=O)O)C(=O)O)C(=O)O)CC1 (some centres unmarked)
# output Criterion not met

# input Entry to check: COc1ccc(C(=O)NCCN2CCN(C(=O)CCC(=O)N[C@@H](CCCCNC(=O)CN3CCN(CC(=O)O)CCN(CC(=O)O)CCN(CC(=O)O)CC3)C(=O)NCC3CCC(C(=O)N[C@@H](Cc4ccc5ccccc5c4)C(=O)NCCCC[C@H](NC(=O)N[C@@H](CCC(=O)O)C(=O)O)C(=O)O)CC3)CC2)cc1 (some centres unmarked)
# output Criterion not met

# input Entry to check: COc1ccc(CCCC(=O)NC(CCC(N)=O)C(=O)N[C@@H](CCCCNC(=O)CN2CCN(CC(=O)O)CCN(CC(=O)O)CCN(CC(=O)O)CC2)C(=O)NCC2CCC(C(=O)N[C@@H](Cc3ccc4ccccc4c3)C(=O)NCCCC[C@H](NC(=O)N[C@@H](CCC(=O)O)C(=O)O)C(=O)O)CC2)cc1 (some centres unmarked)
# output Criterion met

# input Entry to check: COc1ccc(CCCC(=O)NC(CCCNC(=N)N)C(=O)N[C@@H](CCCCNC(=O)CN2CCN(CC(=O)O)CCN(CC(=O)O)CCN(CC(=O)O)CC2)C(=O)NCC2CCC(C(=O)N[C@@H](Cc3ccc4ccccc4c3)C(=O)NCCCC[C@H](NC(=O)N[C@@H](CCC(=O)O)C(=O)O)C(=O)O)CC2)cc1 (some centres unmarked)
# output Criterion not met

# input Entry to check: COc1ccc(CCCC(=O)NC(CCCCN)C(=O)N[C@@H](CCCCNC(=O)CN2CCN(CC(=O)O)CCN(CC(=O)O)CCN(CC(=O)O)CC2)C(=O)NCC2CCC(C(=O)N[C@@H](Cc3ccc4ccccc4c3)C(=O)NCCCC[C@H](NC(=O)N[C@@H](CCC(=O)O)C(=O)O)C(=O)O)CC2)cc1 (some centres unmarked)
# output Criterion met
